- TESTED ON: T1, SARS-CoV-2 Spike Glycoprotein S1 (subunit 1) (SARS-CoV-2, UniProt P0DTC2 16-685)
- T1 construct: also called S1 Monomer; SARS-CoV-2 S1
- EXPERIMENT SUMMARY: column Inhibitor IC50 (assay not explained)
pIC50: −log10 of the molar value.
Mark class 0 for pIC50 values under 7, and class 1 for everything at or above.

Is the recorded value of pIC50 equal to or greater than 7 for this binder? 1-12 (antibody, V domains shown) VH: EVQLLESGGGLVQPGGSLRLSCAASGITFSSYAMSWVRQAPGKGLEWVSGISGSGGSTYYADSVKGRFTISRDNSKNTLYLQMNSLRAEDTAVYYCAKHGSGTIFGVVIAKYYFDYWGQGTLVTVSS VL: QSALTQPASVSGSPGQSITISCTGTSSDVGHYNLVSWYQQHPGKAPKLMIYEGTKRPSGVSNRFSGSKSGNTASLTISGLQAEDEADYYCCSYAGSSSFVVFGGGTKLTVL
class 1

Is the recorded value of pIC50 equal to or greater than 7 for this binder? 1-53 (antibody, V domains shown) VH: EVQLLESGGGLVQPGGSLRLSCAASGFTFSSYTMSWVRQAPGKGLEWVSVISGSGGSTYYADSVKGRFTISRDNSKNTLYLQMNSLRAEDTAVYYCAREGYRDYLWYFDLWGQGTLVTVSS VL: QSALTQPASVSGSPGQSITISCTGTSTDVGSYNLVSWYQQHPGKAPKLMIYEGTKRPSGVSNRFSGSKSGNTASLTISGLQAEDEADYYCCSYAGSYTSVVFGGGTKLTVL
class 0

Is the recorded value of pIC50 equal to or greater than 7 for this binder? 1-26 (antibody, V domains shown) VH: EVQLLESGGGLVQPGGSLRLSCAASGFTFSSYAISWVRQAPGKGLEWVSAISGSGYSTYYADSVKGRFTISRDNSKNTLYLQMNSLRAEDTAVYYCARGAPDSSGYYFQGEVYFDYWGQGTLVTVSS VL: QSALTQPASVSGSPGQSITISCTGTSSDVGGYNLVSWYQQHPGKAPKLMIYEGTKRPSGVSNRFSGSKSGNTASLTISGLQAEDEADYYCCSFVRSSAHVVFGGGTKLTVL
class 1
